# assay_name: Trypan Blue viability of the single cell suspension, lung
# Assay type: in vivo, rat
# condition_context: female, Wistar, rat, lung, inhaled, 5 ppm, lung, female, no FPG; 5 ppm inhalation, 5 days; read-out: Viability (%) (mean ± SD)
endpoint: viability at 5 days

Suppose we examine the compound C=CN1CCCC1=O [NVP, N-vinylpyrrolidone] ; what viability at 5 days value has been reported?
99%

----------
# assay_name: Trypan Blue viability of the single cell suspension, liver
# Type: in vivo, rat
# condition_context: female, Wistar, rat, in vivo, po, 200 mg/kg, Individual viability (%)
endpoint: viability at 24 h (%)
Field: numeric (%). Do not append units.

Suppose we examine the compound CCOS(C)(=O)=O [EMS, ethyl methanesulfonate, reference compound] ; what viability at 24 h value has been reported?
99

----------
# assay_name: Trypan Blue viability of the single cell suspension, liver
# Assay type: in vivo, rat
# condition_context: male, Wistar, rat, liver, inhaled, 20 ppm, liver, male, no FPG; 20 ppm inhalation, 5 days; read-out: Viability (%) (mean ± SD)
endpoint: viability at 5 days (%)
Field: numeric (%). Do not append units.

Suppose we examine the compound C=CN1CCCC1=O [NVP, N-vinylpyrrolidone] ; what viability at 5 days value has been reported?
97

----------
# assay_name: Trypan Blue viability of the single cell suspension, lung
# Type: in vivo, rat
# condition_context: female, Wistar, rat, lung, inhaled, 20 ppm, lung, female, no FPG; 20 ppm inhalation, 5 days; individual animals; read-out: Individual viability (%)
endpoint: viability at 5 days (%)
Field: numeric (%). Do not append units.

Suppose we examine the compound C=CN1CCCC1=O [NVP, N-vinylpyrrolidone] ; what viability at 5 days value has been reported?
98

----------
# assay_name: Trypan Blue viability of the single cell suspension, liver
# Assay type: in vivo, rat
# condition_context: female, Wistar, rat, liver, inhaled, 5 ppm, liver, female, Comet with FPG (Table 9); 5 ppm inhalation, 5 days; read-out: Viability (%) (mean ± SD)
endpoint: viability at 5 days (%)
Field: numeric (%). Do not append units.

Suppose we examine the compound C=CN1CCCC1=O [NVP, N-vinylpyrrolidone] ; what viability at 5 days value has been reported?
99

----------
# assay_name: Trypan Blue viability of the single cell suspension, lung
# Assay type: in vivo, rat
# condition_context: female, Wistar, rat, in vivo, po, 200 mg/kg, Viability (%) (mean ± SD)
endpoint: viability at 24 h (%)
Field: numeric (%). Do not append units.

Suppose we examine the compound CCOS(C)(=O)=O [EMS, ethyl methanesulfonate, reference compound] ; what viability at 24 h value has been reported?
99

----------
# assay_name: Trypan Blue viability of the single cell suspension, liver
# Assay type: in vivo, rat
# condition_context: female, Wistar, rat, in vivo, po, 200 mg/kg, Viability (%) (mean ± SD)
endpoint: viability at 24 h (%)
Field: numeric (%). Do not append units.

Suppose we examine the compound CCOS(C)(=O)=O [EMS, ethyl methanesulfonate, reference compound] ; what viability at 24 h value has been reported?
96

----------
# assay_name: Trypan Blue viability of the single cell suspension, lung
# Type: in vivo, rat
# condition_context: male, Wistar, rat, lung, inhaled, 10 ppm, lung, male, Comet with FPG (Table 10); 10 ppm inhalation, 5 days; read-out: Viability (%) (mean ± SD)
endpoint: viability at 5 days (%)
Field: numeric (%). Do not append units.

Suppose we examine the compound C=CN1CCCC1=O [NVP, N-vinylpyrrolidone] ; what viability at 5 days value has been reported?
98

----------
# assay_name: Trypan Blue viability of the single cell suspension, liver
# Type: in vivo, rat
# condition_context: male, Wistar, rat, liver, inhaled, 20 ppm, liver, male, no FPG; 20 ppm inhalation, 5 days; individual animals; read-out: Individual viability (%)
endpoint: viability at 5 days (%)
Field: numeric (%). Do not append units.

Suppose we examine the compound C=CN1CCCC1=O ; what viability at 5 days value has been reported?
98

----------
# assay_name: Trypan Blue viability of the single cell suspension, liver
# Format: in vivo, rat
# condition_context: female, Wistar, rat, liver, inhaled, 5 ppm, liver, female, no FPG; 5 ppm inhalation, 5 days; read-out: Viability (%) (mean ± SD)
endpoint: viability at 5 days (%)
Field: numeric (%). Do not append units.

Suppose we examine the molecule C=CN1CCCC1=O [NVP, N-vinylpyrrolidone] ; what viability at 5 days value has been reported?
97

----------
# assay_name: Trypan Blue viability of the single cell suspension, lung
# Type: in vivo, rat
# condition_context: male, Wistar, rat, lung, inhaled, 20 ppm, lung, male, Comet with FPG (Table 10); 20 ppm inhalation, 5 days; individual animals; read-out: Individual viability (%)
endpoint: viability at 5 days (%)
Field: numeric (%). Do not append units.

Suppose we examine the compound C=CN1CCCC1=O ; what viability at 5 days value has been reported?
100

----------
# assay_name: Trypan Blue viability of the single cell suspension, liver
# Format: in vivo, rat
# condition_context: male, Wistar, rat, liver, inhaled, 5 ppm, liver, male, Comet with FPG (Table 8); 5 ppm inhalation, 5 days; read-out: Viability (%) (mean ± SD)
endpoint: viability at 5 days (%)
Field: numeric (%). Do not append units.

Suppose we examine the compound C=CN1CCCC1=O [NVP, N-vinylpyrrolidone] ; what viability at 5 days value has been reported?
98

----------
# assay_name: Trypan Blue viability of the single cell suspension, lung
# Assay type: in vivo, rat
# condition_context: female, Wistar, rat, lung, inhaled, 20 ppm, lung, female, no FPG; 20 ppm inhalation, 5 days; read-out: Viability (%) (mean ± SD)
endpoint: viability at 5 days
Reply with a number, then the unit it belongs to.

Suppose we examine the compound C=CN1CCCC1=O ; what viability at 5 days value has been reported?
98%

----------
# assay_name: Trypan Blue viability of the single cell suspension, liver
# Assay type: in vivo, rat
# condition_context: female, Wistar, rat, liver, inhaled, 5 ppm, liver, female, no FPG; 5 ppm inhalation, 5 days; individual animals; read-out: Individual viability (%)
endpoint: viability at 5 days (%)
Field: numeric (%). Do not append units.

Suppose we examine the compound C=CN1CCCC1=O [NVP, N-vinylpyrrolidone] ; what viability at 5 days value has been reported?
98

----------
# assay_name: Trypan Blue viability of the single cell suspension, lung
# Type: in vivo, rat
# condition_context: female, Wistar, rat, lung, inhaled, 5 ppm, lung, female, no FPG; 5 ppm inhalation, 5 days; individual animals; read-out: Individual viability (%)
endpoint: viability at 5 days (%)
Field: numeric (%). Do not append units.

Suppose we examine the compound C=CN1CCCC1=O [NVP, N-vinylpyrrolidone] ; what viability at 5 days value has been reported?
99

----------
# assay_name: Trypan Blue viability of the single cell suspension, lung
# Format: in vivo, rat
# condition_context: male, Wistar, rat, lung, inhaled, 5 ppm, lung, male, no FPG; 5 ppm inhalation, 5 days; read-out: Viability (%) (mean ± SD)
endpoint: viability at 5 days (%)
Field: numeric (%). Do not append units.

Suppose we examine the compound C=CN1CCCC1=O ; what viability at 5 days value has been reported?
98

----------
# assay_name: Trypan Blue viability of the single cell suspension, liver
# Format: in vivo, rat
# condition_context: female, Wistar, rat, liver, inhaled, 20 ppm, liver, female, no FPG; 20 ppm inhalation, 5 days; read-out: Viability (%) (mean ± SD)
endpoint: viability at 5 days (%)
Field: numeric (%). Do not append units.

Suppose we examine the compound C=CN1CCCC1=O ; what viability at 5 days value has been reported?
97
